The entries below are paired with their reported Crabgrass plant response rating.
# System: crabgrass
# Assay procedure: Test B pre/postemergence crabgrass
# Type: in vivo, Digitaria sanguinalis
# Particulars: Postemergence, Rate 250 g/ha; scale 0 to 10, 0 no effect, 10 complete control

- Structure: "Cc1cc(C)c(-n2c(=O)on(C(=O)N(c3ccc(F)cc3)C(C)C)c2=O)c(C)c1"
  Assay system: "crabgrass"
  Crabgrass plant response rating: 1
- Structure: "CC(C)N(C(=O)n1oc(=O)n(C(C)(C)C)c1=O)c1ccc(Cl)cc1"
  Assay system: "crabgrass"
  Crabgrass plant response rating: 7
- Structure: "CC(C)N(C(=O)n1oc(=O)n(C(C)C)c1=O)c1ccc(Cl)cc1"
  Assay system: "crabgrass"
  Crabgrass plant response rating: 9
- Structure: "COc1cccc(C)c1-n1c(=O)on(C(=O)N(c2ccc(F)cc2F)C(C)C)c1=O"
  Assay system: "crabgrass"
  Crabgrass plant response rating: 4
